Origin of measurements: paper PMC6629894

Tested on: HL-60 (human promyelocytic leukemia)
Experiment: Alamar blue cytotoxicity assay, 72 h
Type: cell-based
Details: PBMCs vs HL-60
READOUT KIND: Selectivity index (SI = IC50 [noncancerous cells]/IC50 [cancer cells])
Hey, just send me the number, nothing else.

Please give the measured Selectivity index (SI = IC50 [noncancerous cells]/IC50 [cancer cells]) for this compound: COc1cccc2c1C(=O)c1c(O)c3c(c(O)c1C2=O)C[C@@](O)(C(=O)CO)C[C@@H]3O[C@H]1C[C@H](N)[C@H](O)[C@H](C)O1 [Doxorubicin, reference compound]
12.5

Please give the result for F[P-](F)(F)(F)(F)F.[Ru+2].[S-]C1=NCCS1.c1ccc(-c2ccccn2)nc1.c1ccc(P(CCCCP(c2ccccc2)c2ccccc2)c2ccccc2)cc1 [Complex 2, [Ru(tzdt)(bipy)(dppb)]PF6] too.
2.4

Please give the result for F[P-](F)(F)(F)(F)F.Nc1cc(N)nc([S-])n1.[Ru+2].c1ccc(-c2ccccn2)nc1.c1ccc(P(CCCCP(c2ccccc2)c2ccccc2)c2ccccc2)cc1 [Complex 3, [Ru(dmp)(bipy)(dppb)]PF6] too.
2.6

Please give the result for F[P-](F)(F)(F)(F)F.O=C(O)c1ccc([S-])nc1.[Ru+2].c1ccc(-c2ccccn2)nc1.c1ccc(P(CCCCP(c2ccccc2)c2ccccc2)c2ccccc2)cc1 [Complex 4, [Ru(mpca)(bipy)(dppb)]PF6] too.
2.6
